Each recorded value in this set is attributed to a melting point compilation (Tetko et al.; mined from patent text by program, amines drawn as free bases though some values may be those of a salt).

Reported melting point values for a set of molecules
endpoint_label: melting point

molecule | endpoint_label | data_value
COc1cc2c(c(OC)c1/C=C/c1ccc(CN)cc1)C(C)(C)CCC2(C)C | melting point | 59 to 60 °C
C=CCOc1ccc(-c2cc3[nH]c4c(c(=O)n3n2)CN(C2CCCCC2)C4=O)cc1 | melting point | > 320 °C
CC1(c2ccc(C(O)C(C)(C)C)cc2)OCCO1 (stereo unspecified) | melting point | 75 to 80 °C
COC(=O)c1ccc(CNC(=NC#N)NCCNC(=O)c2nc(Cl)c(N)nc2N)cc1 | melting point | 190 to 195 °C
N[C@@H](Cc1ccc([N+](=O)[O-])cc1I)C(=O)O | melting point | > 200 °C
O=C1c2cc(Br)sc2SCCN1CCCCCl | melting point | 81 to 89 °C

* * *

endpoint_label: melting point

molecule | data_value
Clc1ccc(-c2nc3cc(Cl)ccc3o2)cc1 | 178 to 183 °C
COc1cc2c(cc1OCc1ccccc1)CC(C(=O)O)NC2 (racemic) | 230 to 240 °C
CCOC(=O)C1=C(N)NC(N)=C(C(=O)OCC)C1c1cccc2ccccc12 | 162 to 163 °C
Cn1cc(S(=O)(=O)Cl)c(=O)c2ccc(F)cc21 | 194 to 196 °C
COc1ccnc(CSCCN=C(NC#N)SC)c1 | 91.5 to 92.5 °C
Cc1c(C)c2c(c(C)c1O)CCC(C#N)(C(C)C)O2 (stereo not given) | 132 °C
CCCc1nn(-c2ccc(C(F)(F)F)cn2)cc1CCCOc1c(CC(=O)O)cnn1CC | 125 to 126 °C
O=C(O)CCCc1cc2nc(Cl)ccc2n1S(=O)(=O)c1cccc(Cl)c1 | 174 °C
Oc1ccc(N2CCN(Cc3nc4ccccc4o3)CC2)cc1 | 155 to 156 °C
CCOc1ccc2c(c1)CCc1c(cccc1C(=O)O)S2 | 165 to 167 °C
Cc1cc(Nc2ccc(C(F)(F)F)cc2C(=O)O)n(-c2ccccn2)n1 | 228 to 229 °C
CCCc1cc(=O)on1C(=O)c1ccc(Cl)cc1Cl | 63 to 65.5 °C
C[C@H]1N(C(=O)OCc2ccccc2)COC1(O)c1ccc(OCc2ccccc2)cc1 (stereo not given in full) | 82 to 86 °C
O=[N+]([O-])c1cc(NCCO)ccc1NCCO | 107 °C
CC1(C)SC(=NO)NC1=O | 198 to 200 °C

* * *

# melting point per entry

compound | melting point
COC(=O)C1CCSC(C)(C)C(=O)N1 (stereo not drawn) | 172 to 174 °C
CC1(C(=O)Nc2ccc(-n3nc(C(F)(F)F)cc3C(F)(F)F)cc2)CC1 | 109 to 110 °C
CCOCCc1c(-c2ccccc2)n2nnnc2n2ncnc12 | 114 °C
Cc1cc(C)c(S(=O)(=O)Nc2cccnc2Nc2ccccc2)c(C)c1 | 140 to 142 °C
CS(=O)(=O)c1ccc(Cn2ccc(OCc3ccc(F)cc3F)c(Cl)c2=O)cc1 | 223 to 225 °C
CC(C)(C)c1ccc(-c2nnc(-c3ccc(C(=O)O)cc3[N+](=O)[O-])o2)cc1 | 233 to 235 °C
CCCCCCCCCCCCCCOc1ccccc1C(=O)OC | 39 to 40 °C
COC(=NC(=O)N(C)C)NC(=O)NC(C)(C)C | 96 to 98 °C
Fc1ccc(C(=C(c2ccccc2)C(F)(F)F)c2ccc(OCCN3CCOCC3)cc2)cc1 | 95 to 96 °C
COc1ccc2c(c1)c(Cc1csc(-c3ccncc3)n1)c(C)n2C(=O)c1ccc(Cl)cc1 | 109 to 114 °C
O=S(=O)(NCCc1ccccc1)c1cccc(-c2cc(-c3nc(-c4ccc(C(F)(F)F)cc4)cc(C(F)(F)F)n3)ccn2)c1 | 201 °C
CCc1ncnc(O)c1I | 191 to 192 °C
COCCOC(=O)Nc1cccc(C)c1CNc1cccn2c(CO)c(C)nc12 | 138 to 140 °C
